Tested on: HEK-293T
Experiment: Incucyte cell viability with HEK293T; note: unitless GR value; below 1 slowed growth and below 0 cell loss
Assay type: toxicity, cell-based
Settings: human, 24 h, 10 µM, compound concentration 10 uM, replicate number 2
Classification field: Satisfied = Growth Rate at or over 0.9; Not satisfied = Growth Rate under 0.9.

Here are 6 molecules together with their reported answers.
molecule=Cc1c(-c2cc(-c3ccccc3Cl)no2)cnn1C1CCNCC1.Cl class_name="Not satisfied"
molecule=CN1C(=O)Cc2ccc(-c3ccc(C[C@@H](C#N)NC(=O)[C@@H]4N[C@H]5CC[C@@H]4C5)c(F)c3)cc21 class_name="Not satisfied"
molecule="CC/C(=C(\\c1ccc(O)cc1)c1ccc(OCCN(C)C)cc1)c1ccccc1 [AFIMOXIFENE]" class_name="Not satisfied"
molecule=NC(=O)c1ccc(-c2nc(-c3ccc4c(c3)OCCO4)c(-c3ccccn3)[nH]2)cc1 class_name="Not satisfied"
molecule=CN1CCN([C@H]2CC[C@@H](n3cc(-c4ccc(Oc5ccccc5)cc4)c4c(N)ncnc43)CC2)CC1 class_name="Not satisfied"
molecule=CNC(=O)c1c(F)cccc1Nc1nc(Nc2cc3c(cc2OC)CCN3C(=O)CN(C)C)nc2[nH]ccc12 class_name="Not satisfied"

Quick check: does `COc1ccc(CSc2nnc(-c3ccc4ncsc4c3)o2)cc1C(F)(F)F` have Growth Rate greater than or equal to 0.9?
Not satisfied

Quick check: does `CC(=O)N1CCN([C@H]2CCC[C@@H](NC(=O)c3cc4c(F)ccc(C)c4[nH]3)C2)CC1.O=C(O)C(F)(F)F` have Growth Rate greater than or equal to 0.9?
Not satisfied

Quick check: does `O=C(Nc1ccc(-n2nc(C(F)(F)F)cc2C(F)(F)F)cc1)c1ccncc1F` have Growth Rate greater than or equal to 0.9?
Not satisfied

Quick check: does `CC(C)n1cc(-c2ccc(N3CCN(C)CC3)c(NC(=O)c3ccc(-c4ccncc4)o3)c2)cn1` have Growth Rate greater than or equal to 0.9?
Not satisfied

###

Tested on: Fibroblast
Assay: Incucyte cell viability with human fibroblast; note: unitless GR value; below 1 slowed growth and below 0 cell loss
Format: toxicity, cell-based
Conditions: 18 h, 10 µM, compound concentration 10 uM, replicate number 1
quantity_name: Growth Rate
Answer with the value's number alone.

Consider the reported Growth Rate for these compounds:
compound=CN1CCN(c2ccc(/C=C(\C#N)c3ccccc3Br)cc2)CC1.Cl.Cl experimental_system=Fibroblast reported=0.18
compound="O=C1CSC(=O)N1C(CCc1ccncc1)COc1ccc(-c2cccc([N+](=O)[O-])c2)cc1 (centres undefined)" experimental_system=Fibroblast reported=0.92
compound=COc1ncc(-c2cc(-c3ncc(CN4C[C@@H](C)O[C@@H](C)C4)o3)c3cn[nH]c3c2)cc1NS(C)(=O)=O experimental_system=Fibroblast reported=-0.21
compound=O=C(Nc1ccc(Cl)c(-c2ccccn2)c1)c1cccc(COc2ccc(Br)cc2CNCCO)c1.O=CO experimental_system=Fibroblast reported=0.29

// recorded Growth Rate for `Cc1ccc(-n2nc(C(C)(C)C)cc2NC(=O)Nc2ccccc2F)cc1` : 0.86

// recorded Growth Rate for Cc1cc(Nc2ncc(Cl)c(Nc3ccccc3S(=O)(=O)C(C)C)n2)c(OC(C)C)cc1C1CCNCC1 [CERITINIB] : -0.92

// recorded Growth Rate for `Cn1cncc1-c1cn(-c2cccc(C(=O)Nc3cccc(C(F)(F)F)c3)c2)nn1` : 0.87

// recorded Growth Rate for `O=C(CCCCCCc1ccccc1)c1ncc(-c2ccccn2)o1` : 0.96

// recorded Growth Rate for CC(C)S(=O)(=O)c1ccccc1Nc1nc(N[C@@H]2CCCN(CCCCCCCNC(=O)COc3cccc4c3C(=O)N(C3CCC(=O)N(C)C3=O)C4=O)C2)ncc1Cl (some centres undefined) : -0.33

// recorded Growth Rate for `O=S(=O)(Nc1nncs1)c1cc(Cl)c(Oc2ccc(C(F)(F)F)cc2-c2ccnn2C2CNC2)cc1F` : 0.41

// recorded Growth Rate for `COCCOCn1c(S(C)(=O)=O)nc2c1c(=O)n(C)c(=O)n2C` : 0.05

// recorded Growth Rate for `Cc1ccc(-c2cn3nc(C(=O)NC4(c5ccc(F)cc5)CN(C)C4)c(C(C)C)c3c(=O)[nH]2)cc1C` : 0.16

// recorded Growth Rate for `COc1cc(CN(CCN)C(=O)N[C@@H](C)c2ccccc2)ccc1OCc1ccccc1.Cl` : 0.87

// recorded Growth Rate for CCCCCCCN(CCc1ccc(SC(C)(C)C(=O)O)cc1)C(=O)Nc1ccc(F)cc1F [GSK-9578] : 0.7

// recorded Growth Rate for `FC(F)(F)Oc1ccc(-c2ccc3nnc(C(F)(F)F)n3c2)cc1` : 0.42

###

Test system: HEK-293T
Assay: Incucyte cell viability with HEK293T; note: unitless GR value; below 1 slowed growth and below 0 cell loss
Type: toxicity, cell-based
Conditions: human, 6 h, 10 µM, compound concentration 10 uM, replicate number 1
Sorting guide: entries reporting Growth Rate beneath 0.4 go in the true pile, the rest go in the false pile.

compound=COCCNc1cc(NC(=O)N2CCCc3cc(CN4CCOCC4=O)c(C=O)nc32)ncc1C#N experimental_system=HEK-293T class_name=false
compound="CC[C@@H](Nc1c(C#N)c(-c2ccc(-c3cccc(C)c3F)cc2)nc2cnccc12)C(=O)O [BAY-091]" experimental_system=HEK-293T class_name=false
compound="COCCNC1CCC(Nc2cc(-c3csc(NCC4(C#N)CCOCC4)n3)c(Cl)cn2)CC1 (stereo not given)" experimental_system=HEK-293T class_name=true
compound="O=C(Nc1c[nH]nc1-c1nc2cc(CN3CCOCC3)ccc2[nH]1)NC1CC1 [AT-9283]" experimental_system=HEK-293T class_name=true
compound=Cc1ncc(C(=O)Nc2cc(C(C)(C)C)on2)cc1-n1cc(-c2cnn(C)c2C)nn1.Cl experimental_system=HEK-293T class_name=false

Is 0.4 strictly greater than the compound's reported Growth Rate? compound: `COc1cc(-c2cn(C)c(=O)c3cnccc23)cc(OC)c1CN(C)C`
false

Is 0.4 strictly greater than the compound's reported Growth Rate? compound: `CC1=C(C(=O)OCCO)[C@@H](c2ccc(C#N)cc2)NC(=O)N1c1cccc(C(F)(F)F)c1`
false

Is 0.4 strictly greater than the compound's reported Growth Rate? compound: Cc1onc(O)c1CC(N)C(=O)O [(R,S)-AMPA]
false

Is 0.4 strictly greater than the compound's reported Growth Rate? compound: `Clc1ccccc1C(c1ccccc1)(c1ccccc1)n1cccn1`
true

Is 0.4 strictly greater than the compound's reported Growth Rate? compound: O=c1cc(-c2ccccc2)oc2c1ccc1ccccc12 [ALPHA-NAPHTHOFLAVONE]
true

###

System: Fibroblast
Test: Incucyte cell viability with human fibroblast; note: unitless GR value; below 1 slowed growth and below 0 cell loss
Format: toxicity, cell-based
Conditions: 24 h, 10 µM, compound concentration 10 uM, replicate number 1
Overview of reported Growth Rate across a group of compounds:

Consider the reported Growth Rate for these compounds:
compound=Cc1cc([N+](=O)[O-])c(NS(=O)(=O)c2cccc(C(=O)O)c2)cc1-c1cccnc1 reported=0.8
compound=CCc1cncnc1N1CCN(Cc2nc3cc(C(F)(F)F)ccc3[nH]2)CC1 reported=0.31
compound=CN(C(=O)c1cnn2cccnc12)c1cc2c(cc1N1CCOCC1)C(=O)N(C[C@@H](F)C(C)(C)O)C2 reported=0.82

// recorded Growth Rate for Cl.Cl.N=C(N)NCCC[C@H](NC(=O)CC1(CC(=O)N2CCN(C3c4ccccc4NC(=O)c4ccccc43)CC2)CCCC1)C(=O)NCCn1c(=O)n(-c2ccccc2)n(-c2ccccc2)c1=O (some centres undefined) : 0.6

###

Test system: Fibroblast
Test: Incucyte cell viability with human fibroblast; note: unitless GR value; below 1 slowed growth and below 0 cell loss
Format: toxicity, cell-based
Conditions: 18 h, 10 µM, compound concentration 10 uM, replicate number 1
Overview of reported Growth Rate across a group of compounds:
Answer with the value's number alone.

Consider the reported Growth Rate for these compounds:
chem_smiles=CN[C@@H](C)C(=O)N[C@H](C(=O)N1CCC[C@H]1C(=O)N[C@@H]1CCCc2ccccc21)C1CCCCC1.Cl quantity_name="Growth Rate" reported=0.75
chem_smiles=CCCS(=O)(=O)Nc1ccc(F)c(Nc2ncnc3cnc(-n4cnc(C)c4)nc23)c1F quantity_name="Growth Rate" reported=0.53
chem_smiles=CC1(C)Cc2nc(C3CCCC3)c([C@@H](F)c3ccc(C(F)(F)F)cc3)c(C3CCCCC3)c2[C@@H](O)C1 quantity_name="Growth Rate" reported=0.51
chem_smiles=Cl.Cl.O=C1c2ccccc2C(Cc2ccncc2)(Cc2ccncc2)c2ccccc21 quantity_name="Growth Rate" reported=0.1

Now, please, on to the next compound.
// recorded Growth Rate for `Cc1cc(-c2cnc(N)c3c(-c4ccc5scnc5c4)csc23)n(C)n1` : 0.91

###

Tested on: HEK-293T
Assay: Incucyte cell viability with HEK293T; note: unitless GR value; below 1 slowed growth and below 0 cell loss
Assay type: toxicity, cell-based
Details: human, 24 h, 10 µM, compound concentration 10 uM, replicate number 2
quantity_name: Growth Rate
Answer with the value's number alone.

// recorded Growth Rate for CNC(=O)c1cccc(-c2ccc3c(N4CCOC[C@@H]4C)nc(N4CCOC[C@@H]4C)nc3n2)c1 [VISTUSERTIB] : -0.28

// recorded Growth Rate for `CCN1CCN(Cc2ccc(C(=O)Nc3ccc(C)c(Oc4ccc5c(c4)CC(=O)N5)c3)cc2C(F)(F)F)CC1.Cl.Cl` : 0.14

// recorded Growth Rate for `COc1cc(-c2cc([C@H](O)C3CC3)n3ncnc(N)c23)ccc1CO` : 0.87
